- Tested on: A498 (Kidney Carcinoma)
- PROTOCOL_TEXT: combination Emax (second highest fraction inhibited in the dose matrix, 72 h); higher = more inhibition; extreme values may be limits of the assay
Give measured combination Emax for each item. Keep answers brief.

Determine from records and report combination Emax for CC(=O)c1c(C)c2cnc(Nc3ccc(N4CCNCC4)cn3)nc2n(C2CCCC2)c1=O [Palbociclib] + CC1(C)CCC(CN2CCN(c3ccc(C(=O)NS(=O)(=O)c4ccc(NCC5CCOCC5)c([N+](=O)[O-])c4)c(Oc4cnc5[nH]ccc5c4)c3)CC2)=C(c2ccc(Cl)cc2)C1 [Venetoclax] (first compound max 10 µM, 7x7, partner max 1 µM)
0.318

Determine from records and report combination Emax for CC(=O)Nc1cccc(-n2c(=O)n(C3CC3)c(=O)c3c(Nc4ccc(I)cc4F)n(C)c(=O)c(C)c32)c1 [Trametinib] + Cc1nc(-c2cn3c(n2)-c2ccc(-c4cnn(C(C)(C)C(N)=O)c4)cc2OCC3)n(C(C)C)n1 [Taselisib] (first compound max 1 µM, 7x7, partner max 10 µM)
0.861

Determine from records and report combination Emax for CN(C)CCCOc1ccc(-c2ccc3ncc4c(c3c2)n(C2CCOCC2)c(=O)n4C)cn1 [AZD0156] + CCN(CCO)CCCOc1ccc2c(Nc3cc(CC(=O)Nc4cccc(F)c4)[nH]n3)ncnc2c1 [AZD2811] (first compound max 1 µM, 7x7, partner max 1 µM)
0.172

Determine from records and report combination Emax for COc1nnc2ccc(N3CCC(c4ccc(OCCN5CCN(C)C(=O)[C@H]5C)cc4)CC3)nn12 [AZD5153] + C=CCn1c(=O)c2cnc(Nc3ccc(N4CCN(C)CC4)cc3)nc2n1-c1cccc(C(C)(C)O)n1 [AZD1775] (first compound max 1 µM, partner max 1 µM)
0.534

---

Give measured Bliss excess for each item. Keep answers brief.
- System: KARPAS-422 (B-Cell Non-Hodgkin's Lymphoma)
- PROTOCOL_TEXT: Bliss excess, mean over the matrix (fraction); higher = more synergy
I'd appreciate a reply containing only the number, no unit.

Determine from records and report Bliss excess for Cc1c2c(nn1C)CSCc1cc(n(C)n1)CSc1cc(c3ccccc3c1)OCCCc1c(C(=O)O)n(C)c3c-2c(Cl)ccc13 [AZD5991] + C1CN(CCC1(C(=O)N[C@@H](CCO)C2=CC=C(C=C2)Cl)N)C3=NC=NC4=C3C=CN4 [Capivasertib] (first compound max 1 µM, 7x7, partner max 3 µM)
-0.132

Determine from records and report Bliss excess for CCN(CCO)CCCOc1ccc2c(Nc3cc(CC(=O)Nc4cccc(F)c4)[nH]n3)ncnc2c1 [AZD2811] + O=C(c1cc(Cc2n[nH]c(=O)c3ccccc23)ccc1F)N1CCN(C(=O)C2CC2)CC1 [Olaparib] (first compound max 1 µM, 7x7, partner max 10 µM)
0.0267

Determine from records and report Bliss excess for CCN(CCO)CCCOc1ccc2c(Nc3cc(CC(=O)Nc4cccc(F)c4)[nH]n3)ncnc2c1 [AZD2811] + C=CCn1c(=O)c2cnc(Nc3ccc(N4CCN(C)CC4)cc3)nc2n1-c1cccc(C(C)(C)O)n1 [AZD1775] (first compound max 1 µM, partner max 1 µM)
-0.0349

Determine from records and report Bliss excess for Cc1cc2ncnn2cc1Nc1ncc2c(n1)n(C1CCOCC1)c(=O)n2C [AZD7648] + CCN(CCO)CCCOc1ccc2c(Nc3cc(CC(=O)Nc4cccc(F)c4)[nH]n3)ncnc2c1 [AZD2811] (first compound max 10 µM, 7x7, partner max 1 µM)
-0.0417

Determine from records and report Bliss excess for C=CCn1c(=O)c2cnc(Nc3ccc(N4CCN(C)CC4)cc3)nc2n1-c1cccc(C(C)(C)O)n1 [AZD1775] + C[C@@H]1COCCN1C2=NC(=NC(=C2)C3(CC3)[S@](=N)(=O)C)C4=C5C=CNC5=NC=C4 [AZD6738] (first compound max 1 µM, partner max 10 µM)
-0.0445

Determine from records and report Bliss excess for CC(=O)Nc1cccc(-n2c(=O)n(C3CC3)c(=O)c3c(Nc4ccc(I)cc4F)n(C)c(=O)c(C)c32)c1 [Trametinib] + Cc1nc(-c2cn3c(n2)-c2ccc(-c4cnn(C(C)(C)C(N)=O)c4)cc2OCC3)n(C(C)C)n1 [Taselisib] (first compound max 1 µM, 7x7, partner max 10 µM)
0.0204

Determine from records and report Bliss excess for CC1(C)CCC(CN2CCN(c3ccc(C(=O)NS(=O)(=O)c4ccc(NCC5CCOCC5)c([N+](=O)[O-])c4)c(Oc4cnc5[nH]ccc5c4)c3)CC2)=C(c2ccc(Cl)cc2)C1 [Venetoclax] + Cn1cnc2c(F)c(Nc3ccc(Br)cc3Cl)c(C(=O)NOCCO)cc21 [Selumetinib] (first compound max 1 µM, 7x7, partner max 3 µM)
-0.0238

---

- System: SK-MES-1 (Squamous Cell Lung Carcinoma)
- PROTOCOL_TEXT: Bliss excess, mean over the matrix (fraction); higher = more synergy
PROPERTY_NAME: Bliss excess
I'd appreciate a reply containing only the number, no unit.

Determine from records and report Bliss excess for COc1nnc2ccc(N3CCC(c4ccc(OCCN5CCN(C)C(=O)[C@H]5C)cc4)CC3)nn12 [AZD5153] + C=CCn1c(=O)c2cnc(Nc3ccc(N4CCN(C)CC4)cc3)nc2n1-c1cccc(C(C)(C)O)n1 [AZD1775] (first compound max 1 µM, partner max 1 µM)
0.0183

Determine from records and report Bliss excess for CCc1c2c(nc3ccc(O)cc13)-c1cc3c(c(=O)n1C2)COC(=O)[C@]3(O)CC [SN-38] + CN(C)CCCOc1ccc(-c2ccc3ncc4c(c3c2)n(C2CCOCC2)c(=O)n4C)cn1 [AZD0156] (first compound max 0.3 µM, 7x7, partner max 1 µM)
-0.0272

Determine from records and report Bliss excess for Cc1c2c(nn1C)CSCc1cc(n(C)n1)CSc1cc(c3ccccc3c1)OCCCc1c(C(=O)O)n(C)c3c-2c(Cl)ccc13 [AZD5991] + C=CCn1c(=O)c2cnc(Nc3ccc(N4CCN(C)CC4)cc3)nc2n1-c1cccc(C(C)(C)O)n1 [AZD1775] (first compound max 1 µM, partner max 1 µM)
-0.0183

Determine from records and report Bliss excess for COc1cccc2c1C(=O)c1c(O)c3c(c(O)c1C2=O)C[C@@](O)(C(=O)CO)C[C@@H]3O[C@H]1C[C@H](N)[C@H](O)[C@H](C)O1 [Doxorubicin] + Cc1cc2ncnn2cc1Nc1ncc2c(n1)n(C1CCOCC1)c(=O)n2C [AZD7648] (first compound max 1 µM, 7x7, partner max 10 µM)
0.0477

---

- Test system: BICR22 (Oral Cavity Carcinoma)
- PROTOCOL_TEXT: combination Emax (second highest fraction inhibited in the dose matrix, 72 h); higher = more inhibition; extreme values may be limits of the assay
PROPERTY_NAME: combination Emax

Identify measured combination Emax obtained with BICR22 (Oral Cavity Carcinoma) for NC1(C(=O)N[C@@H](CCO)c2ccc(Cl)cc2)CCN(c2ncnc3[nH]ccc23)CC1 [Capivasertib] + COc1nnc2ccc(N3CCC(c4ccc(OCCN5CCN(C)C(=O)[C@H]5C)cc4)CC3)nn12 [AZD5153] (first compound max 10 µM, 7x7, partner max 1 µM) .
0.631

Identify measured combination Emax obtained with BICR22 (Oral Cavity Carcinoma) for Cc1c2c(nn1C)CSCc1cc(n(C)n1)CSc1cc(c3ccccc3c1)OCCCc1c(C(=O)O)n(C)c3c-2c(Cl)ccc13 [AZD5991] + CCN(CCO)CCCOc1ccc2c(Nc3cc(CC(=O)Nc4cccc(F)c4)[nH]n3)ncnc2c1 [AZD2811] (first compound max 1 µM, 7x7, partner max 1 µM) .
0.675

---

- Test system: ONS-76 (Other Solid Carcinomas)
- PROTOCOL_TEXT: Bliss excess, mean over the matrix (fraction); higher = more synergy
Give measured Bliss excess for each item. Keep answers brief.
I'd appreciate a reply containing only the number, no unit.

Determine from records and report Bliss excess for CC1(C)CCC(CN2CCN(c3ccc(C(=O)NS(=O)(=O)c4ccc(NCC5CCOCC5)c([N+](=O)[O-])c4)c(Oc4cnc5[nH]ccc5c4)c3)CC2)=C(c2ccc(Cl)cc2)C1 [Venetoclax] + CCN(CCO)CCCOc1ccc2c(Nc3cc(CC(=O)Nc4cccc(F)c4)[nH]n3)ncnc2c1 [AZD2811] (first compound max 1 µM, 7x7, partner max 1 µM)
-0.0244

Determine from records and report Bliss excess for CC1(C)CCC(CN2CCN(c3ccc(C(=O)NS(=O)(=O)c4ccc(NCC5CCOCC5)c([N+](=O)[O-])c4)c(Oc4cnc5[nH]ccc5c4)c3)CC2)=C(c2ccc(Cl)cc2)C1 [Venetoclax] + C[C@@H]1COCCN1C2=NC(=NC(=C2)C3(CC3)[S@](=N)(=O)C)C4=C5C=CNC5=NC=C4 [AZD6738] (first compound max 1 µM, 7x7, partner max 10 µM)
-0.0531

Determine from records and report Bliss excess for Cn1cnc2c(F)c(Nc3ccc(Br)cc3Cl)c(C(=O)NOCCO)cc21 [Selumetinib] + CC(C)n1c(=O)n(C)c2cnc3cc(F)c(-c4ccc(OCCCN5CCCCC5)nc4)cc3c21 [AZD1390] (first compound max 10 µM, 7x7, partner max 0.3 µM)
-0.0108

Determine from records and report Bliss excess for COc1cc2c(cc1OCCCCCOc1cc3c(cc1OC)C(=O)N1C=C(C)C[C@H]1C=N3)N=C[C@@H]1CC(C)=CN1C2=O [SG3199] + O=C(c1cc(Cc2n[nH]c(=O)c3ccccc23)ccc1F)N1CCN(C(=O)C2CC2)CC1 [Olaparib] (first compound max 0.001 µM, 7x7, partner max 10 µM)
-0.0635

Determine from records and report Bliss excess for N#Cc1cnc(Nc2cc(NC[C@H]3CNCCO3)c(C(F)(F)F)cn2)cn1 [SRA737] + O=c1[nH]cc(F)c(=O)[nH]1 [5-Fluorouracil] (first compound max 10 µM, 7x7, partner max 20 µM)
-0.0482

Determine from records and report Bliss excess for CN(CCO)CC[C@H](CSc1ccccc1)Nc1ccc(S(=O)(=O)NC(=O)c2ccc(N3CCC([C@@H](O)c4ccccc4-c4ccc(Cl)cc4)CC3)cc2)cc1S(=O)(=O)C(F)(F)F [AZD4320] + CCN(CCO)CCCOc1ccc2c(Nc3cc(CC(=O)Nc4cccc(F)c4)[nH]n3)ncnc2c1 [AZD2811] (first compound max 1 µM, 7x7, partner max 1 µM)
0.0817

Determine from records and report Bliss excess for CN(CCO)CC[C@H](CSc1ccccc1)Nc1ccc(S(=O)(=O)NC(=O)c2ccc(N3CCC([C@@H](O)c4ccccc4-c4ccc(Cl)cc4)CC3)cc2)cc1S(=O)(=O)C(F)(F)F [AZD4320] + CC(=O)O[C@H]1C(=O)[C@@]2(C)[C@H]([C@H](OC(=O)c3ccccc3)[C@]3(O)C[C@H](OC(=O)[C@H](O)[C@@H](NC(=O)c4ccccc4)c4ccccc4)C(C)=C1C3(C)C)[C@]1(OC(C)=O)CO[C@@H]1C[C@@H]2O [Paclitaxel] (first compound max 1 µM, 7x7, partner max 3 µM)
0.0661
